# systemUnderTest: T1, 14-3-3σ, full length, N-terminally His6-tagged (human, UniProt P31947 1-248)
# T1 chain: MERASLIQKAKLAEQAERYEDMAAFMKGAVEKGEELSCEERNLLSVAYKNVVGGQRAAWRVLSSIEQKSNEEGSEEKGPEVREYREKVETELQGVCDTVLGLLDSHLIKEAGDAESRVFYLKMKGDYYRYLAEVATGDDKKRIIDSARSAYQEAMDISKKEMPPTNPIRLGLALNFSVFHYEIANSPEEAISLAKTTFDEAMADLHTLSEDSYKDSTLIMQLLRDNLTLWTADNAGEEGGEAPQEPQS
# assayRemarks: FP
Primed or numbered codes have the meaning given here. Where no end group is shown, it is not given here. [ ]: non-standard residue; d: D form. The star is where a group is joined. PEG2′ = short PEG linker placed between the N-terminal FITC label and the peptide; FITC = O=C1OC2(c3ccc(O)cc3Oc3cc(O)ccc32)c2ccc(NC(=S)*)cc21; pS = N[C@@H](COP(=O)(O)O)C(=O)O
assayReadout: Kd

(Q) Reported Kd, binder {FITC-PEG2′}-EKNKNAN[pS]SPVASTTPSASATTNPASATTLDQSKAWNR (also: second phosphorylated Ser/Thr, site not given here) [fluorescently labeled peptide 8, APN 36–73, bis-phosphorylated] : ____
(A) > 167 µM

(Q) Would you mind doing {FITC-PEG2′}-EKNKNAN[pS]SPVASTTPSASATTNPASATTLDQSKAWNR (also: second phosphorylated Ser/Thr, site not given here) [fluorescently labeled peptide 9, APN 36–73, bis-phosphorylated] as well?
(A) > 167 µM

(Q) Would you mind doing EKNKNAN[pS]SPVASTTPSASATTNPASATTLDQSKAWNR (not fully specified (N-terminus); also: FITC via PEG2 linker, site not given here) [fluorescently labeled peptide 7, APN 36–73 pSer43] as well?
(A) > 167 µM

Just for reference, paper PMC7939381 is where these values come from.
